Value source: paper PMC7181697

target: T1, REV7^W171A (human, UniProt Q9UI95 1-211, W171A); test: ITC; ITC200, 25 °C, 20 mM Tris pH 8.0, 150 mM NaCl, 1% glycerol, 1 mM TCEP; one set of sites model; settings: both partners purified
T1 construct: REV7 (MAD2B, MAD2L2), human, full length; source: E. coli BL21(DE3), purified (Ni-IDA, SEC); alone or co-expressed with SHLD3(1-82)
T1 sequence (Q9UI95 whole entry W171A): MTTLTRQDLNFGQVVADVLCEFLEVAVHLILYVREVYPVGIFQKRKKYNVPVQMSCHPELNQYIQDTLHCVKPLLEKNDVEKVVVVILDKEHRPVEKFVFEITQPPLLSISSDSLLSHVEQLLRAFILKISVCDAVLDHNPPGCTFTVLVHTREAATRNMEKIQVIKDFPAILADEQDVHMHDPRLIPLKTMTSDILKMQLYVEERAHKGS
endpoint: Kd

Q: Give its Kd value. Item: SHLD3(1–82) with C-terminal His6-tag (domain or fragment, human, UniProt Q6ZNX1 1-82, looked up, SHLD3, human, residues 1-82; SHLD3(1-82) expressed alone for biochemical studies (pET28a(+)); source: E. coli BL21(DE3), purified (Ni-IDA, SEC)) MTTEVILHYRPCESDPTQLPKIAEKAIQDFPTRPLSRFIPWFPYDGSKLPLRPKRSPPVISEEAAEDVKQYLTISEHDAKSH
Result: ~200 nM
